Target: human ErbB2, full length, on cells (B300.19/hErbB2 clone #44; MCF7; BT474; SKBR3) (human)
metric_name: N2 EC50 (ng/ml), inhibition of BT474 cell proliferation (ng/mL)
# value in ng/mL; strip the unit string

{"binder": "monoclonal antibody 1.100.1 (antibody, V domains shown) VH: QLQLQESGPGLVKPSETLSLTCTVSGGFISSSSYYWGWIRQPPGKGLEWIGTIYYSGTTYYNSSLKSRVTISVDTSQNQFSLKLSSVTAADTAVYYCARHHWVFDYWGQGTLVTVSS VL: EVVLTQSPDFQSVTPKEKITITCRASQIIGTSLHWYQKKPDQSPKLLIKYASQSFSGVPSRFSGSGSGTEFTLTINSLEAEDTATYYCHQSTNLPWTFGQGTKVEIK", "val": 91.1}
{"binder": "monoclonal antibody 1.18.1 (antibody, V domains shown) VH: QVQLVESGGGVVQPGRSLRLSCAASGFTFSSYGMHWVRQAPGKGLEWVAVIWYDRSNKYYADSVKGRFTISRDNSKNTLYLQMDSLRAEDTAVYYCAGGRSRGAFDYWGQGTLVTVSS VL: DIQMTQSPSSLSASVGDRVTITCRASQGIRNYLAWFQQKPGKAPKSLIYAASSLQSGVPSTFSGSGSGTHFTLTISSLQPEDFASYFCQQYEIYPLTFGGGTKVEIK", "val": 28.2}
{"binder": "monoclonal antibody 1.20 (antibody, V domains shown) VH: QLQLQESGPGLVKPSETLSLTCTVSGGSISSSNYYWGWIRQPPGKGLEWIGTIYYTGSTYYNPSLKSRVTISVDTSKNQFSLKLSSVTAADTAVYYCARHHWVFDYWGQGTLVTVSS VL: DIQMTQSPSSVSASVGDRVTITCRASQGISSWLAWYQQKPGKAPKLLIYAASSLQSGVPSRFSGSGSGTDFTLTISSLQPEDFATYYCQRTNSFPRTFGQGTKVEIK", "val": 12.8}

Task item: Which measured N2 EC50 (ng/ml), inhibition of BT474 cell proliferation value corresponds to monoclonal antibody 1.39 (antibody, V domains shown) VH: QLQLQESGPGLVKPSETLSLTCTVSGGSISSSTYYWGWIRQPPGKGLEWIGTIYYSGSTYYNPSLKSRVTISVDTSKNQFSLKLNSVTAADTAVYYCARHHWVFDYWGQGTLVTVSS VL: EIVLTQSPDFLSVTPKEKVTITCRASQIIGSSLHWYQQKPDQSPKLLIKYASQSFSGVPSRFSGSGSGTDFTLTLNSLEAEDAATYYCHQSTILPWTFGQGTKVEIK ?
Reply: 42.3

Task item: Please answer likewise for monoclonal antibody 1.96 (antibody, V domains shown) VH: EVQLVESGGGLVQPGGSLRLSCAASGFTFSSYWMSWVRQAPGKGLEWVANIKQDGSEKYYVDSVKGRFTISRDNAKNSLYLQMNSLRAEDTAVYYCARWGVFGSGSYYIPFDYWGQGTLVTVSS VL: DIQMTQSPSSLSASVGDRVTITCRASHSITRYINWYQQKPGKAPNLLIYAASSLQSGVPSRFSGSGSGTDFTLTISSPQPEDFATYYCQQSYSSPPITFGQGTRLEIK
Reply: 66.3

Task item: Please answer likewise for monoclonal antibody 1.14.1 (antibody, V domains shown) VH: QLQLQESGPGLVKPSETLSLTCTVSGDSISSFIYYWGWIRQPPGKGLEWIGTIYYSGSTYYNPSLKSRVTISVDTSKNQFSLKLRSVTAADTAVYYCARHHWVFDYWGQGTQVTVSS VL: DIVLTQFPDFQSVTPKEKVTITCRASQVIGSSLHWYQQKPDQSPKLLIKYASQSFSGVPSRFSGSGSGTDFTLTINSLEVEDAATYYCHQSTILPWTFGQGTKVEVK
Reply: 63
